- TEST: inhibition of 3D7 malaria parasite growth – strain 3D7 (AID 2306);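 also: 0% = DMSO wells and 100% = chloroquine plus artemisinin control wells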
- APPLIED_CONDITIONS: P. falciparum 3D7 erythrocytic growth, LDH absorbance, 72 h; at 2 µM; hits give high values
PARAMETER_MEASURED: growth inhibition (%)

>>> print(df.to_string())
                                    molecule  parameter_measured  val
 0  COc1c(C2CCN(CCCCNC(=O)c3ccc(-c4ccc(C(=O)C(F)(F)F)cc4)cc3)CC2)ccc2c1CCCC2   growth inhibition   81
 1  CCCN(CCC)CCCOc1ccc(C(=O)c2c(-c3ccc(OCCCN(CCC)CCC)cc3)oc3ccc(Cl)cc23)cc1   growth inhibition   96
 2  COC(=O)c1cc(/C(C)=N/Nc2nc3ccccc3[nH]2)ccc1O   growth inhibition  101
 3  CCCCCCC(C)c1cc(O)c2c(c1)OC(C)(C)C=C2c1ccncc1 (configuration not stated)   growth inhibition   98
 4  Fc1cc(Cl)ccc1Nc1ccnc2cc(-c3ccc(CN4CCOCC4)o3)ccc12   growth inhibition   99
 5  Cc1cc2nc(-c3ccc(/C=C/C(=O)NCCCc4ccccc4)cc3)[nH]c2cc1C   growth inhibition   96
 6  O=c1cc(NCCCNCc2cc(Cl)cc(Cl)c2OCc2ccc(Cl)cc2)[nH]c2ccccc12   growth inhibition   98
 7  Cc1nc(-c2ccccc2)nc(N2CCN(C(=O)c3ccco3)CC2)c1Cc1ccccc1F   growth inhibition   95
 8  COc1ccccc1N=C1SC(=Cc2cn(CC(=O)N3CCCc4ccccc43)c3ccccc23)C(=O)N1C1CCCCC1   growth inhibition  100
 9  O=C(c1cncc(-c2ccccc2)c1)N(Cc1cncn1Cc1ccccc1F)CC1CC1   growth inhibition  100
10  Cc1cc(Nc2nc(NCc3cccnc3)nc3ccccc23)n[nH]1   growth inhibition  101
11  O=C(c1cccs1)N(Cc1cccc(-c2ccc(CNCCc3ccccc3)cc2)c1)C1CCN(Cc2ccccc2)CC1   growth inhibition   95

Where do these numbers come from? They come from PubChem BioAssay.
